system tested: human Werner helicase (WRN-BV08, Uniprot Q14191, amino acids 517-1235 with L1074F point mutation) (Homo sapiens, UniProt Q14191, L1074F)
Construct: Uniprot Q14191, amino acids 517-1235 with L1074F point mutation; TEV-cleavable 8×His (C, cleaved yes); made in house; host or cells: Sf9 insect cells (baculovirus)
Sequence (Q14191 with tags, fused parts or gaps L1074F limits assumed): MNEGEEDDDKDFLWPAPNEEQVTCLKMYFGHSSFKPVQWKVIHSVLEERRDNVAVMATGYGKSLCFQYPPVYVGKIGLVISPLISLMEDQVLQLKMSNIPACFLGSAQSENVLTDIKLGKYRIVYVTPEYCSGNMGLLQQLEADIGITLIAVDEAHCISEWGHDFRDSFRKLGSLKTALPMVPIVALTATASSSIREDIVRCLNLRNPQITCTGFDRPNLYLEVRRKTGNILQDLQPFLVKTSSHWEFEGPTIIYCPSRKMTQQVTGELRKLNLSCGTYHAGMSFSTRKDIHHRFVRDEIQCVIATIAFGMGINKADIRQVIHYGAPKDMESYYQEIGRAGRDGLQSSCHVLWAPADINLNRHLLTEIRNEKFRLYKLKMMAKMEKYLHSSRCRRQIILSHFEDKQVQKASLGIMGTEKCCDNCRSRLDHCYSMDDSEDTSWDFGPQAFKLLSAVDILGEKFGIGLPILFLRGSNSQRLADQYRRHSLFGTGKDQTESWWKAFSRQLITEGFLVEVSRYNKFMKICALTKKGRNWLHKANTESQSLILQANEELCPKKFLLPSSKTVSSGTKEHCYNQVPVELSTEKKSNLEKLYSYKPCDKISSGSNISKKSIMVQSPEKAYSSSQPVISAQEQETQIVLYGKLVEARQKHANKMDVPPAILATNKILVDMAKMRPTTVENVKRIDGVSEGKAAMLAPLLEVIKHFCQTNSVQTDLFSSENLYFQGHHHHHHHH
assay procedure: WRN (BV08) ADP-Glo Assay
Format: biochemical
stated conditions: 0.15 nM WRN, 5 μM ATP, 0.1 nM DNA duplex, 15 min preincubation, 60 min at 25° C., pH 7.5, 1% DMSO; read-out: ADP-Glo_hWRN_IC50
This listing pairs compounds with measured IC50.

>  <compound>
CC(C)(O)c1cc(CN(C(=O)C(c2ccc(-c3ccc(F)c(F)c3)cc2F)n2cccn2)C2C=CS(=O)(=O)C2)ccn1 (single isomer, unassigned) [I-670]

>  <readout value>
0.5 to 5 µM

$$$$
>  <compound>
CC(C)c1csc(CN(C(=O)Cc2ccc(S(F)(F)(F)(F)F)cc2)C2C=CS(=O)(=O)C2)n1 (stereo not shown) [I-659]

>  <readout value>
< 0.5 µM

$$$$
>  <compound>
O=C(Cc1ccc(S(F)(F)(F)(F)F)cc1)N(Cc1nc(C2CC2)cs1)C1C=CS(=O)(=O)C1 (single isomer, unassigned) [I-253]

>  <readout value>
10 to 50 µM

$$$$
>  <compound>
CN(C)C(=O)C(C(=O)N(Cc1ccnc(C(C)(C)O)c1)C1C=CS(=O)(=O)C1)c1ccc(-c2ccc(F)cc2)cc1F (stereo not shown) [I-21]

>  <readout value>
< 0.5 µM

$$$$
>  <compound>
COc1cc(CN(C(=O)Cc2ccc(C(F)(F)F)cc2)C2C=CS(=O)(=O)C2)ccn1 (stereo not shown) [I-105]

>  <readout value>
0.5 to 5 µM

$$$$

Problem: Specify reported IC50 for the compound shown: CC1=CC(N(Cc2ccccc2)C(=O)Cc2ccc(-n3cccc3)cc2)CS1(=O)=O (stereo not shown) [I-566]
Result: > 50 µM

Problem: Retrieve IC50 measured for COCC(C(=O)N(Cc1ccnc(C(C)(C)O)c1)[C@@H]1C=CS(=O)(=O)C1)c1ccc(S(F)(F)(F)(F)F)cc1 (single isomer, unassigned) [I-675] and print it.
Result: 10 to 50 µM

====

system tested: human Werner helicase (WRN-BV08, Uniprot Q14191, amino acids 517-1235 with L1074F point mutation) (Homo sapiens, UniProt Q14191, L1074F)
Construct: Uniprot Q14191, amino acids 517-1235 with L1074F point mutation; TEV-cleavable 8×His (C, cleaved yes); made in house; host or cells: Sf9 insect cells (baculovirus)
assay procedure: WRN (BV08) ADP-Glo Assay
Format: biochemical
stated conditions: 0.15 nM WRN, 5 μM ATP, 0.1 nM DNA duplex, 15 min preincubation, 60 min at 25° C., pH 7.5, 1% DMSO; read-out: ADP-Glo_hWRN_IC50
Recorded IC50 values for a group of compounds are listed next.

>  <compound>
COc1cc(CC(=O)N(Cc2ccncc2)C2C=CS(=O)(=O)C2)cc(OC)c1Br (centres unmarked)

>  <endpoint>
IC50

>  <readout value>
> 50 µM

$$$$
>  <compound>
O=C(Cc1ccc(-n2cccc2)cc1)N(Cc1ccncc1)C1C=CS(=O)(=O)C1 (single isomer, unassigned) [I-193]

>  <endpoint>
IC50

>  <readout value>
0.5 to 5 µM

$$$$
>  <compound>
C#CCCCC(=O)N1CCN(Cc2ccc(CN(C(=O)Cc3ccc(-n4cccc4)cc3F)C3C=CS(=O)(=O)C3)cc2)CC1 (centres unmarked)

>  <endpoint>
IC50

>  <readout value>
0.5 to 5 µM

$$$$
>  <compound>
Cc1cccn1-c1ccc(CC(=O)N(Cc2ccnc(C(C)(C)O)c2)C2C=CS(=O)(=O)C2)c(F)c1 (centres unmarked)

>  <endpoint>
IC50

>  <readout value>
< 0.5 µM

$$$$
>  <compound>
CC(C)Cc1ccc(CC(=O)N(Cc2ccncc2)C2C=CS(=O)(=O)C2)cc1 (centres unmarked)

>  <endpoint>
IC50

>  <readout value>
10 to 50 µM

$$$$
>  <compound>
Cn1cc(CN(C(=O)Cc2ccc(-n3cccc3)cc2)C2C=CS(=O)(=O)C2)cn1 (centres unmarked)

>  <endpoint>
IC50

>  <readout value>
> 50 µM

$$$$

Problem: Output measured IC50 for this item: O=C(CCc1ccc(C(F)(F)F)cc1)N(Cc1ccncc1)C1C=CS(=O)(=O)C1 (centres unmarked)
Result: > 50 µM

Problem: Please look at this compound and report its IC50: O=C(Cc1ccc(C2CCC2)cc1)N(Cc1ccncc1)C1C=CS(=O)(=O)C1 (centres unmarked)
Result: 0.5 to 5 µM

Problem: Consider the compound COc1cc(CN(C(=O)C(OCCS(C)(=O)=O)c2ccc(-c3ccc(F)c(F)c3)cc2F)[C@@H]2C=CS(=O)(=O)C2)ccn1 (single isomer, unassigned) [I-710] . State its measured IC50.
Result: > 50 µM

Problem: State, in one line, measured IC50 of O=C(Cc1ccc(-n2cccc2)cc1)N(Cc1ccccc1)C1C=C(CO)S(=O)(=O)C1 (centres unmarked)
Result: > 50 µM

Problem: Return reported IC50. Input compound: CNC(=O)CC(C(=O)N(Cc1ccncc1)C1C=CS(=O)(=O)C1)c1ccc(-c2ccc(F)cc2)cc1 (centres unmarked)
Result: > 50 µM

Problem: Answer with reported IC50 of Cc1cccn1-c1ccc(CC(=O)N(Cc2ccncc2)C2C=CS(=O)(=O)C2)cc1 (centres unmarked)
Result: 0.5 to 5 µM

Problem: // fetch IC50 given entry COc1cc(CN(C(=O)C(OC2CS(=O)(=O)C2)c2ccc(-c3ccc(F)c(F)c3)cc2F)[C@@H]2C=CS(=O)(=O)C2)ccn1 (single isomer, unassigned) [I-835]
Result: 5 to 10 µM

Problem: Given O=C(Cc1ccc(S(F)(F)(F)(F)F)cc1)N(Cc1nc(-c2nn[nH]n2)cs1)C1C=CS(=O)(=O)C1 (centres unmarked) , respond with its IC50.
Result: < 0.5 µM

====

system tested: human Werner helicase (WRN-BV08, Uniprot Q14191, amino acids 517-1235 with L1074F point mutation) (Homo sapiens, UniProt Q14191, L1074F)
Construct: Uniprot Q14191, amino acids 517-1235 with L1074F point mutation; TEV-cleavable 8×His (C, cleaved yes); made in house; host or cells: Sf9 insect cells (baculovirus)
assay procedure: WRN (BV08) ADP-Glo Assay
Assay type: biochemical
stated conditions: 0.15 nM WRN, 5 μM ATP, 0.1 nM DNA duplex, 15 min preincubation, 60 min at 25° C., pH 7.5, 1% DMSO; read-out: ADP-Glo_hWRN_IC50
pIC50: −log10 of the molar value.
endpoint: pIC50

Answered cases to consult:
>  <compound>
O=C(Cc1cccc(C2CC2)c1)N(Cc1ccncc1)C1C=CS(=O)(=O)C1 (stereo not drawn)

>  <pIC50>
< 4.30

$$$$
>  <compound>
O=C(C(C(=O)N(Cc1ccncc1)C1C=CS(=O)(=O)C1)c1ccc(-c2ccc(F)cc2)cc1)N1CCOCC1 (stereo not drawn)

>  <pIC50>
5.00 to 5.30

$$$$

Let us examine a further case.
Problem: Quickly give me recorded pIC50 for COc1cc(CN(C(=O)Cc2ccc(S(F)(F)(F)(F)F)cc2)[C@@H]2C=CS(=O)(=O)C2)ccn1
Result: > 6.30

====

system tested: human Werner helicase (WRN-BV08, Uniprot Q14191, amino acids 517-1235 with L1074F point mutation) (Homo sapiens, UniProt Q14191, L1074F)
Construct: Uniprot Q14191, amino acids 517-1235 with L1074F point mutation; TEV-cleavable 8×His (C, cleaved yes); made in house; host or cells: Sf9 insect cells (baculovirus)
assay procedure: WRN (BV08) ADP-Glo Assay
Format: biochemical
stated conditions: 0.15 nM WRN, 5 μM ATP, 0.1 nM DNA duplex, 15 min preincubation, 60 min at 25° C., pH 7.5, 1% DMSO; read-out: ADP-Glo_hWRN_IC50
Recorded IC50 for the following compounds

>  <compound>
COc1cc(CN(C(=O)C2Cc3cc(-n4cccc4C)ccc32)C2C=CS(=O)(=O)C2)ccn1 (stereo not drawn)

>  <endpoint>
IC50

>  <readout value>
0.5 to 5 µM

$$$$
>  <compound>
CN(C)C(=O)OC(C(=O)N(Cc1ccnc(C(C)(C)O)c1)[C@@H]1C=CS(=O)(=O)C1)c1ccc(-c2ccc(F)c(F)c2)cc1F (single isomer, unassigned)

>  <endpoint>
IC50

>  <readout value>
10 to 50 µM

$$$$
>  <compound>
COC(C(=O)N(Cc1ccnc(C(C)(C)O)c1)C1C=CS(=O)(=O)C1)c1ccc(-c2ccc(F)c(F)c2)cc1F (stereo not drawn) [I-18]

>  <endpoint>
IC50

>  <readout value>
< 0.5 µM

$$$$
>  <compound>
O=C(Cc1ccc(-n2cccc2)cc1)N(Cc1ccc(C2CC2)cn1)C1C=CS(=O)(=O)C1 (stereo not drawn)

>  <endpoint>
IC50

>  <readout value>
5 to 10 µM

$$$$
>  <compound>
O=C(CC12CC(c3ccccc3)(C1)C2)N(Cc1ccncc1)C1C=CS(=O)(=O)C1 (stereo not drawn)

>  <endpoint>
IC50

>  <readout value>
> 50 µM

$$$$

Problem: Specify IC50 for COc1cc(CN(C(=O)C(OCC2CCOCC2)c2ccc(-c3ccc(F)c(F)c3)cc2F)[C@@H]2C=CS(=O)(=O)C2)ccn1 (stereo partly drawn) and stop.
Result: 0.5 to 5 µM

Problem: Please give measured IC50 of the following entry: O=C(CN1CCC(c2ccccc2)CC1)N(Cc1ccncc1)C1C=CS(=O)(=O)C1 (stereo not drawn)
Result: > 50 µM
